Source of measurements: patent US20260226126A1

Target: T1, AVITAG CD122/CD132 heterodimer (human, UniProt P14784 27-239; P31785 23-262)
T1 construct: also called IL-2Rβ/γ
T1 sequence 1: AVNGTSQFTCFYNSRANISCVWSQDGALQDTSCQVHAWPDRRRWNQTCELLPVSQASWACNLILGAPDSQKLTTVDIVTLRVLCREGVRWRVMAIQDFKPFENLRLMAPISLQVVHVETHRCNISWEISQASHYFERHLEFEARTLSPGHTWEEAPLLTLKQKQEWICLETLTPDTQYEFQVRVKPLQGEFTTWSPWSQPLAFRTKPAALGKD
T1 sequence 2: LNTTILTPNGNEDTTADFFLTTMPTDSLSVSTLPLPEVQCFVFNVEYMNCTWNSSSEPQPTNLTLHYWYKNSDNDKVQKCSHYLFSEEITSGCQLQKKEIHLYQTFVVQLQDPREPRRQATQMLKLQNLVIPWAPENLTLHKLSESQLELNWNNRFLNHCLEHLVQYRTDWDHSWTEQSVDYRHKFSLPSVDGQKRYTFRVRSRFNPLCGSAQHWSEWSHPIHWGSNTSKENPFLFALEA
Assay: BLI (OCTET RED96); receptor loaded on biosensor, IL-2 mutein in solution at 10 to 2,000 nM
// reported pKd per item
Remember the convention: pKd equals -log10 of concentration in molar.

Binder	Assay Endpoint	Endpoint Result
IL-2-IL-15 Chimera 44 (T3A, L18C) (ligand, no fusion partner is stated) APASSSTKKTQLQLEHLCLDLQMILNGIQSMEIDATTFKFYMPKKATELKHLQCLEEELKPLEEVLNLAQSKNFHLRPRDLISNINVIVLELKGSETTFMCEYADETATIVEFLNRWITFCQSIISTLT	pKd	7.92

I have this binder here, IL-2-IL-15 Chimera 29 (I92A, C125S) (ligand, no fusion partner is stated) APTSSSTKKTQLQLEHLLLDLQMILNGIQSMEIDATTFKFYMPKKATELKHLQCLEEELKPLEEVLNLAQSKNFHLRPRDLISNINVAVLELKGSETTFMCEYADETATIVEFLNRWITFSQSIISTLT , and I need its recorded pKd.
8.46
